Test system: MS2 coat protein
Assay Summary: apparent KD of MS2 coat protein; designed switch direction (-1 OFF switch, 1 ON switch): -1; higher = weaker reporter binding
Condition Label: input ligand: microRNA oligo, concentration not stated
Recorded Endpoint: apparent KD of MS2 coat protein (nM)
Please give a number only; it is taken to be in nM.

Which apparent KD of MS2 coat protein value belongs to AUUAAACAUGUAGGAUAUGCAUAGCAAAGCUAUGCAGAAGGACAUGAGGAUCACCCAUGUAAAAGCGUCUGAGUACAGAUGCAA [Mat - Exclusion NG 1 - Mod of JL - D89] (Eterna round: R96, puzzle: Exclusion NG 1) ?
53.2

Would you kindly repeat that for CCCGCGCGUGUAGGAUAUGGCUCGGUGUCUGGGCCAGAAGGACAUGAGGAUCACCCAUGUCUGCGGGUGUGGGCGUGGUUUGGG [-36, -33 kcal A 14%] (Eterna round: R96, puzzle: Exclusion NG 1) ?
18.6

Would you kindly repeat that for AAGUGGAAAACACAAUUGUACAUGAGGAUCACCCAUGUAUGUACGAAAUAUAGACAAGCUGUAUGCUCGACAACACA [Sensor v2 M17] (Eterna round: R96, puzzle: Sensor v2, turn-off variant) ?
18.3

====

System: MS2 coat protein
Assay Summary: apparent KD of MS2 coat protein; higher = weaker reporter binding
Condition Label: Eterna round: R107; input ligand: arginine 13.2 mM
Label fulfilled for high-side apparent KD of MS2 coat protein (at or above 30 nM) and not fulfilled for low-side apparent KD of MS2 coat protein (below it).

Consider the worked cases shown below.
- ACAUGAGGAUCACCCAUGUGAGAUAGGGAAGGAGCGCAGGAGGAUGCAGGUAGGUCGCCCACAUGAGGAUCACCCGUGUCUGGAG [#11 Exclusion - Arginine A]: fulfilled
- AAGGUGAUCCUCGAUACCAGCUCAACAUGAGGAUCACCCAUGUAAGCCUGGAAACAGGCGAGCCCUUGGCAGCGAGUUACAUCAA [(M)'-(Theo1)-(Ms2)-(Theo2)-(M'')]: fulfilled
- AUUAAGGAUAUGUAGAAGGCGGAGAAGAGACGAGGACCGGUACGGCCGCCACUCGUGUUAGUUAACAUGAGGAUCACCCAUGUAA [#06 Tryptophan A Same State]: not fulfilled

Is reported apparent KD of MS2 coat protein greater than or equal to 30 nM here: GCGAUGGAGCGAAGGAGCGUGCUGGUACAUGAGGAUCACCCAUGUGAGUCGCAUCGCUAAGCACAGGUAGGUCGCGCUCCAUCGC [EAB NP+V+V2 #10]
fulfilled

Would you kindly repeat that for GGUUCAUCGUCGGCCGCCACUCACAUGAGGUGGAGCUGUAAACAUGAGGAUCACCCAUGUUGUUAGAGGACCGGGACGUGACGGC [theeternabot_exclusion_MS2_Trp_B_6] ?
not fulfilled

Would you kindly repeat that for CUCCCGUGGUCGGCCGCCACUGGAGGCCUCGCGCGACAUGAGGAUCACCCAUGUUGGCCCGGCUUCAGGACCGGGAUCGCGUGAG [#1 Same State - Tryptophan B Attempt #8 (HarryS)] ?
not fulfilled

====

System: MS2 coat protein
Assay Summary: apparent KD of MS2 coat protein; designed switch direction (-1 OFF switch, 1 ON switch): 1; higher = weaker reporter binding
Condition Label: input ligand: FMN 200 uM
Recorded measurements of apparent KD of MS2 coat protein, one per entry
Please give a number only; it is taken to be in nM.

Some entries whose results are on file:
• GGAGCCAAGGCAGGAUAUUCAUAUUAAAUGACAUGAGGAUCACCCAUGUUGGCCAGAAGGCCAUGGGAGAAGGGCCAUGGCUCG [Xeonanis - 13 mod23] (Eterna round: R96, puzzle: Same State NG 2) = 41.3
• AAAAUGUGAUGUUACAUGAGGAUCACCCAUGUAGUGACAACUAAGGAUAUCUGAAAAAAAGGAGAGGAGAAGGUAGGAUCACAA [AK SSNG3-V2-16.1] (Eterna round: R96, puzzle: Same State NG 3) = 25.7

Which apparent KD of MS2 coat protein value belongs to AGCGUCCACACAGGAUAUCACCUGCACUACAGGUGAGAAGGGUGACCGGUGCGCAAUAACGACAUGAGGAUCACCCAUGUAAAA [Enraquleer] (Eterna round: R96, puzzle: Same State NG 1) ?
334

Would you kindly repeat that for GGUAGGUUACUACCAACACAUGAGGAUCACCCAUGUUUUGGGAAGGAUAUGGUACCUAUUUGGUACCAGAAGGUCCAGUUAAUU [Fiskers NG3ss - 17] (Eterna round: R96, puzzle: Same State NG 3) ?
47.4

Would you kindly repeat that for GCGAUAUGAUGUUACAUGAGGAUCACCCAUGUAGCGAUAGCUAAGGAUAUUUGAAAGGGAGGAGAAGAGAAGGUAGGAUCACGC [AK SSNG3-V2-22.2] (Eterna round: R96, puzzle: Same State NG 3) ?
24.6

Would you kindly repeat that for AUUAUUAAUGCAGGAUAUGAUUAACAUGAGGAUCACCCAUGUGGUGUUGUGAGUAAGGAGAGUGAUCAGAAGGGCAUCUUUUUU [JMF's solution 10] (Eterna round: R96, puzzle: Same State NG 2) ?
470
